System: 188146-221-R-J1-PDC complex spheroid viability;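 further: spheroids exposed to compounds for seven days; 100% = DMSO vehicle control viability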
Experiment: Anticancer human tumor 188146-221-R-J1-PDC patient-derived colon adenocarcinoma cell line growth inhibition [POLQ]
Conditions: second compound 1 µM; first compound 10 µM; active compounds read low
Classify: yes (1) when viability, T/C is strictly less than 40%; no (0) when viability, T/C is not.

[[record]]
molecule = "Nc1ccn(C2OC(CO)C(O)C2(F)F)c(=O)n1 (stereo not given) + Nc1ccc(C#CCN(C(=O)Cc2ncc(C(F)(F)F)cc2C(F)(F)F)c2ccc(F)cc2)nn1"
label_value = "yes (1)"

[[record]]
molecule = "CCc1cc2c(N3CCc4c(cc(Cn5ccnc5)cc4-c4cn(C)nc4C(F)(F)F)C3=O)ccnc2c(OC)n1 + Nc1ccc(C#CCN(C(=O)Cc2ncc(C(F)(F)F)cc2C(F)(F)F)c2ccc(F)cc2)nn1"
label_value = "no (0)"

[[record]]
molecule = "CCCS(=O)(=O)Nc1ccc(F)c(C(=O)c2c[nH]c3ncc(-c4ccc(Cl)cc4)cc23)c1F + Cc1cccc(N(C)C(=O)C2C(O)CCN2c2nc(C)cc(C(F)(F)F)c2C#N)c1"
label_value = "yes (1)"

[[record]]
molecule = "CNCc1ccc(-c2[nH]c3cc(F)cc4c3c2CCNC4=O)cc1 + Nc1ccc(C#CCN(C(=O)Cc2ncc(C(F)(F)F)cc2C(F)(F)F)c2ccc(F)cc2)nn1"
label_value = "no (0)"

[[record]]
molecule = "COc1cc(C2c3cc4c(cc3C(OC3OC5COC(C)OC5C(O)C3O)C3COC(=O)C23)OCO4)cc(OC)c1O (stereo not given) + Cc1cccc(N(C)C(=O)C2C(O)CCN2c2nc(C)cc(C(F)(F)F)c2C#N)c1"
label_value = "yes (1)"

[[record]]
molecule = "O=c1[nH]cc(F)c(=O)[nH]1 + COC1C(OC(N)=O)C(O)C(Oc2ccc3c(O)c(NC(=O)c4ccc(O)c(CC=C(C)C)c4)c(=O)oc3c2C)OC1(C)C"
label_value = "yes (1)"

[[record]]
molecule = "CCc1cc2c(N3CCc4c(cc(Cn5ccnc5)cc4-c4cn(C)nc4C(F)(F)F)C3=O)cc(C)nc2c(OC)n1 + Cc1cccc(N(C)C(=O)C2C(O)CCN2c2nc(C)cc(C(F)(F)F)c2C#N)c1"
label_value = "no (0)"

[[record]]
molecule = "O=C(c1cc(Cc2n[nH]c(=O)c3ccccc23)ccc1F)N1CCN(C(=O)C2CC2)CC1 + COC1C(OC(N)=O)C(O)C(Oc2ccc3c(O)c(NC(=O)c4ccc(O)c(CC=C(C)C)c4)c(=O)oc3c2C)OC1(C)C"
label_value = "no (0)"

[[record]]
molecule = "COc1cc(C2c3cc4c(cc3C(OC3OC5COC(C)OC5C(O)C3O)C3COC(=O)C23)OCO4)cc(OC)c1O (stereo not given) + COC1C(OC(N)=O)C(O)C(Oc2ccc3c(O)c(NC(=O)c4ccc(O)c(CC=C(C)C)c4)c(=O)oc3c2C)OC1(C)C"
label_value = "yes (1)"

[[record]]
molecule = "COc1ccc([C@@H](O)c2cc(-c3ncnc4cc(N5CCOCC5)ccc34)c(F)cc2Cl)nn1 + COC1C(OC(N)=O)C(O)C(Oc2ccc3c(O)c(NC(=O)c4ccc(O)c(CC=C(C)C)c4)c(=O)oc3c2C)OC1(C)C"
label_value = "yes (1)"


Data provenance: PubChem BioAssay AID1963851
